Target: cyclooxygenase
Assay: Cyclooxygenase inhibitory activity (PGE2 formation from [1-14C] arachidonic acid)
Details: microsome fraction of rabbit kidney medulla; 37°C, 15 min; PGE2 radioactivity; read-out: IC₅₀
Protocol: 60 ml of a 0.1 M phosphate buffer (pH: 7.5) containing 1 mM glutathione was added to 7.0 g of medulla of kidney of a rabbit, and the mixture was homogenized through the use of a polytron. The resultant homogenate was centrifuged at 9,000 x G for 20 min to obtain a microsome fraction. This fraction was dissolved in 7 ml of a 0.1 M phosphate buffer (pH: 7.5) containing 1 […] glutathione to give a cyclooxygenase enzyme preparation. […]
pIC50: −log10 of the molar value.
Experimental Readout: pIC50

{"columns": ["Compound", "Tested On", "Numeric Result"],
 "data": [
  ["CCCCC/C=C/C(O)CCc1ccc(O)c(OC)c1 (stereo not shown)", "cyclooxygenase", 5.12]
]}
